tested on: UO-31; experiment: NCI tumour cell line growth inhibition, 48 h
Activity calls are given as the source filed them. Cut-off read from the data, not from the text of the source: active = GI50 up to about 1.1 µM and inactive = higher.
Permitted responses: 1 (yes) (active), 0 (no) (inactive)

| compound | group |
| --- | --- |
| COc1cc2c(c(OC)c1OC)-c1ccc(SC)c(=O)cc1C(CC(=O)Oc1ccccc1F)C2 (stereo not drawn) | 1 (yes) |
| CCOc1ccc(N/C(=C(/C(Cl)=C(/Cl)Nc2ccccc2)[N+](=O)[O-])n2nnc3ccccc32)cc1 | 0 (no) |
| CC(NNC(=O)c1cc[n+]([BH2-]C#N)cc1)c1ccc(Cl)cc1Cl (stereo not drawn) | 0 (no) |
| O=[N+]([O-])c1ccc(Sc2c3ccccc3nc3ccccc23)cn1 | 0 (no) |
| COc1ccc2c(c1)Cc1c(NCCN(C)C)ccc(C(=O)NCCCN(C)CCCNC(=O)c3ccc(NCCN(C)C)c4c3Nc3ccc(OC)cc3C4)c1N2 | 1 (yes) |

Ask: Write down the call the test reported for this compound. Item: CC(=O)NC1C(OCc2ccccc2)OC(COC(=O)CCCCCCCCCCNc2ccc([N+](=O)[O-])c3[nH]c4ccccc4c(=O)c23)C(O)C1OC(C)C(=O)NC(C)C(=O)NC(CCC(N)=O)C(=O)OCc1ccccc1 (stereo not drawn)
Result: 0 (no)

Ask: What about this compound? Cc1ccc(C(=O)C2C=C(c3ccc(C)cc3)SC3C=CCC32)cc1 (stereo not drawn)
Result: 0 (no)

Ask: What about this compound? CC(=O)O[C@H]1CCC2[C@@H]3CCC4=C(O)C(=O)C(C#N)C[C@]4(C)C3CC[C@@]21C (stereo partly drawn)
Result: 0 (no)

Ask: What about this compound? O=C(c1ccccc1)c1c(CC(O)c2ccccc2)n(C(=O)c2ccccc2)c2ccccc12 (stereo not drawn)
Result: 0 (no)

Ask: What about this compound? `OC1(C(O)(c2ccc(-c3ccccc3)cc2)c2ccc(-c3ccccc3)cc2)CCCCC1`
Result: 0 (no)

###

test system: Malme-3M; assay: NCI tumour cell line growth inhibition, 48 h
Calls of active or inactive are those of the source. No stated cut-off is given here; in the data, active = GI50 up to about 1.1 µM and inactive = higher.
measuredEndpoint: GI50

Answered cases to consult:
| compound | GI50 |
| --- | --- |
| CCN1c2ccccc2-c2c3c1cc(C)cc3c1ccccc1[n+]2CC | 1.15 µM (inactive) |
| Cc1cc(N(CCC#N)CCC#N)ccc1/C=C(\NC(=O)/C=C/c1ccccc1)C(=O)Nc1ccccc1Cl | > 100 µM (inactive) |
| O=C(CCOS(=O)(=O)CF)N1CCN(C(=O)CCOS(=O)(=O)CF)CC1 | > 57.3 µM (inactive) |

Ask: Record request: GI50 value, item C=CCCC1(O)C(O)C(CO)O[C@H](O[C@@]2(CO)OC(CO)C(O)C2O)C1O (some centres undefined)
Result: > 100 µM (inactive)

###

// reported GI50 for each item listed
system: HL-60; experiment: NCI tumour cell line growth inhibition, 48 h
Counter-ions that a name gives are not always drawn. Calls of active or inactive are those of the source. Rule as the data show it: active = GI50 up to about 1.1 µM and inactive = higher.

Answered cases to consult:
| compound | GI50 |
| --- | --- |
| CC(=O)[C@H]1CC[C@@H]2[C@]1(C)CC=C1[C@]23C=C[C@]2(C[C@@H](O)CC[C@]12C)C(C(=O)O)C3C(=O)O (some centres not stated) | > 100 µM (inactive) |
| Cc1ccc(S(=O)(=O)CNC(=S)CCCC(=S)NCS(=O)(=O)c2ccc(C)cc2)cc1 | 16.1 µM (inactive) |
| CON(C)C(=O)C(Cc1ccccc1)NC(=O)OC(C)(C)C (configuration not stated) | > 100 µM (inactive) |

Ask: State its GI50 on HL-60: COc1ccc(N2C(=O)C(Cl)C2c2cc3cc(Br)ccc3nc2Cl)cc1 (configuration not stated)
Result: 5.98 µM (inactive)

Ask: What about this compound? CC(CN1c2ccccc2Sc2ccccc21)N(C)C (configuration not stated) [PROMETHAZINE HYDROCHLORIDE]
Result: 22.7 µM (inactive)

Ask: What about this compound? CCOC(=O)c1csc(NC(=O)C(C)N2CCCCC2)n1 (configuration not stated)
Result: > 100 µM (inactive)

Ask: What about this compound? `O=C(Cc1nc2ccccc2s1)C(=O)Nc1cccc(C(F)(F)F)c1`
Result: > 100 µM (inactive)

###

system: SK-MEL-5; assay: NCI tumour cell line growth inhibition, 48 h
Active and inactive are the calls of the source. Cut-off read from the data, not from the text of the source: active = GI50 up to about 1.1 µM and inactive = higher.
measuredEndpoint: GI50

Answered cases to consult:
| molecule | measuredEndpoint | observed |
| --- | --- | --- |
| Cc1nc2ccccc2n1CCc1nc2ccccc2[nH]1 | GI50 | > 100 µM (inactive) |
| CCCNC(=O)OCc1c(COC(=O)NCCC)c(-c2ccc(Cl)c(Cl)c2)n2c1CCC2 | GI50 | 5.98 µM (inactive) |
| Cc1ccnn1CCc1ccc(Cl)cc1Cl | GI50 | 19 µM (inactive) |
| CC1CC(C)(O)C2C3(C)CCCC2(COC3=O)C12CCC1(CCOC1=O)O2 (stereo unspecified) | GI50 | > 250 µM (inactive) |
| Clc1ccc(OCc2nnc3sc(-c4ccc(-c5ccc(Cl)cc5Cl)o4)nn23)c(Cl)c1 | GI50 | 20.1 µM (inactive) |
| Nc1ncnc2c1nc(Cl)n2[C@@H]1O[C@@H]2COP(=O)(O)O[C@H]2[C@H]1O [TOCLADESINE] | GI50 | 152 µM (inactive) |

// next entry
Ask: Record request: GI50 value, item `Cn1c(=O)c2nc3c(=O)n(C)c(=O)n(CC(N)=O)c3nc2n(C)c1=O`
Result: > 100 µM (inactive)

###

system: SNB-19; assay: NCI tumour cell line growth inhibition, 48 h
The source made the active and inactive calls. No stated cut-off is given here; in the data, active = GI50 up to about 1.1 µM and inactive = higher.
Permitted responses: Yes for active, No for inactive

Solved cases below.
| molecule | targetSystem | group |
| --- | --- | --- |
| CC(=O)N(C)c1ccc(Nc2ccnc3ccc4nn(C)nc4c23)cc1 | SNB-19 | No |
| COc1ccc2nc3c([N+](=O)[O-])ccc(NCCN(C)C)c3c(N)c2c1 | SNB-19 | No |
| O=C(Nc1ccc(S(=O)(=O)Nc2ncccn2)cc1)c1c2ccccc2nc2ccccc12 | SNB-19 | No |

Ask: Write down the call the test reported for this molecule. Item: `COC(=O)C(=O)Nc1cc2c3c(c1)Oc1cccc4c1C3(C)c1c(cccc1O2)O4`
Result: No

###

tested on: HCT-116; experiment: NCI tumour cell line growth inhibition, 48 h
Active and inactive are the calls of the source. Rule as the data show it: active = GI50 up to about 1.1 µM and inactive = higher.
Permitted responses: active, inactive

Solved cases below.
| compound | group |
| --- | --- |
| COc1ccc(C(SCCO)(c2ccccc2)c2ccc(OC)cc2)cc1 | inactive |
| c1ccc(SC(Sc2ccccc2)c2ccc3c(c2)OCO3)cc1 | inactive |
| O=C1Nc2ccccc2C(=O)/C1=C/NC(=S)NCCc1ccccc1 | inactive |
| Cc1ccnn1CCc1ccc(Cl)cc1Cl | inactive |
| Cc1c2ccncc2c(C)c2c1[nH]c1ccccc12 | active |
| O=C(O)C(Cc1cccs1)NC(=O)C(F)(F)F (stereo not given) | inactive |

Ask: Write down the call the test reported for this compound. Item: CC(C)=CCc1c(O)c(CC2=C(O)C(CC=C(C)C)(C(=O)C(C)C)C(O)=C(C)C2=O)c(O)c(C(=O)C(C)C)c1O (stereo not given)
Result: inactive

Ask: What about this compound? CC(CN1CCN(CC(C)Nc2ccnc3cc(Cl)ccc23)CC1)Nc1ccnc2cc(Cl)ccc12 (stereo not given)
Result: inactive

Ask: What about this compound? CCCCCCCC(=O)OCC1OC(n2cc(F)c(=O)[nH]c2=O)C(N)C(O)C1O (stereo not given)
Result: inactive

Ask: What about this compound? `COC(=O)C(=O)Nc1cc2c3c(c1)Oc1cccc4c1C3(C)c1c(cccc1O2)O4`
Result: inactive

###

test system: RPMI-8226; assay: NCI tumour cell line growth inhibition, 48 h
Calls of active or inactive are those of the source. Cut-off read from the data, not from the text of the source: active = GI50 up to about 1.1 µM and inactive = higher.
Permitted responses: T = active, F = inactive

Solved cases below.
| compound | group |
| --- | --- |
| C=C1c2nc3ccccc3n2C=C(c2ccc(OC)cc2)N1c1ccccc1 | F |
| C=C[C@@](C)(/C=C/c1ccc(O)cc1)CCC=C(C)C [BAKUCHIOL] | F |

Ask: Write down the call the test reported for this compound. Item: `C=C1c2nc3ccccc3n2C=C(c2ccccc2)N1c1ccccc1`
Result: F

Ask: What about this compound? `Oc1cc(-c2ccccn2)nc2cc(F)ccc12`
Result: F

Ask: What about this compound? O=C(CCc1ccccc1)CC1OC(=O)C(Cl)=C1Cl (stereo not given)
Result: F

Ask: What about this compound? `N#Cc1c(-c2ccc([N+](=O)[O-])cc2)c(C#N)c(=O)n(NS(=O)(=O)c2ccccc2)c1O`
Result: F

Ask: What about this compound? `COc1ccc(C2=C(OC(C)=O)c3cccn3-c3ccccc3S2)cc1`
Result: F

Ask: What about this compound? `O=C(Cc1ccccc1)Nc1nc2ccc(Cl)cc2c2nc(-c3ccco3)nn12`
Result: F

Ask: What about this compound? O=[N+]([O-])c1ccc(C(Cl)C(Cl)c2ccc(C(Cl)C(Cl)c3ccc([N+](=O)[O-])cc3[N+](=O)[O-])cc2)c([N+](=O)[O-])c1 (stereo not given)
Result: T

Ask: What about this compound? `O=C(CCc1cccc(O)c1)NCCCNC(=O)CCc1cccc(O)c1`
Result: F
